Each record here notes measured LD50 HUVEC.
- System: HUVEC cells
- METHOD SUMMARY: Neutral red cell viability assay, HUVEC (Table 1)
- Assay type: cell-based
- CONDITION PARAMETERS: Table 1, nonmalignant primary cells, 24 h

COMPOUND: CC(c1ccccc1)N1C2CCC(C2)C1CN(CC1C2CCC(C2)N1C(C)c1ccccc1)S(=O)(=O)c1ccc(-c2ccccc2)cc1 (stereo not drawn) [Compound 13a]
LD50 HUVEC: 12.13 ± 0.26 µM
--
COMPOUND: CC(c1ccccc1)N1C2CCC(C2)C1CNS(=O)(=O)c1ccc(C(F)(F)F)cc1 (stereo not drawn) [Compound 10f]
LD50 HUVEC: 17.26 ± 2.33 µM
--
COMPOUND: CC(c1ccccc1)N1C2CCC(C2)C1CNS(=O)(=O)c1ccc(-c2ccccc2)cc1 (stereo not drawn) [Compound 10a]
LD50 HUVEC: 11.58 ± 1.11 µM

src = paper PMC7288168
